Taken from the supplement of paper PMC10681739.

Hi there, I'd appreciate the recorded ETS1 binding intensity for every entry that follows.
Target: ETS1 (UniProt P14921)
Sequence: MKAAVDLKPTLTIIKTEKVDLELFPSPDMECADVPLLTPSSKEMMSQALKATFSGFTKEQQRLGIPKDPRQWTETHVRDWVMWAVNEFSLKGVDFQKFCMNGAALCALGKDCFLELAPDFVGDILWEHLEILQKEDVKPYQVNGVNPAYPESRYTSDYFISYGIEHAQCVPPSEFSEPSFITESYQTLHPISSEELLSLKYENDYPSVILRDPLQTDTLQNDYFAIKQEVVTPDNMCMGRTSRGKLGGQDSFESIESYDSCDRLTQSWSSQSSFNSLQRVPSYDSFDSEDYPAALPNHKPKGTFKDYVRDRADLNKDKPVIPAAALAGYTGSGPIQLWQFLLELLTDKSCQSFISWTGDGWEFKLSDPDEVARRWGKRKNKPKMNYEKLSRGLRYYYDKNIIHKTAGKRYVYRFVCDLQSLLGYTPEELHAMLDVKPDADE
Test: ETS1 binding intensity (PBM fluorescence) in presence of RUNX1, normalised to ETS1-only experiment (arbitrary fluorescence units); higher = stronger binding
Settings: ETS1 concentration 1 nM; RUNX1 concentration 25 nM
Write no unit; give the number alone.

IN: Quick one: ETS1 binding intensity for CAGAAAAGGCAGGAAGTGGTACAAACCACAAAAGGC ?
OUT: 49600

IN: Dear colleague, I am looking for the recorded ETS1 binding intensity of the following sequence: AACCAATCGAGCGGAGGAAACCGCGGCGTTAGCGTG
OUT: 1020

IN: May I ask what ETS1 binding intensity has been recorded for ACCCCGGAAGTGTGGGCGCGGCTGCGGTTTAACCCG ?
OUT: 15900

IN: So what does the record say about ETS1 binding intensity for TCTCTCTACGGAAGCTGGTAGGGCTGTGGGTGCTTC ?
OUT: 810

IN: Value lookup for ETS1 binding intensity; key = CTCTGAGCAGGAAGTGACAAAACCACGCAGGGCAGG
OUT: 6770

IN: Dear colleague, I am looking for the recorded ETS1 binding intensity of the following sequence: AGCTGCAGTTGGGCAGGAAACCACAATGTCGAAGAC
OUT: 5770

IN: Please report the recorded ETS1 binding intensity for GTCAGGGGAACAGGATGTGGGTGGGAGCCAGCCCCA .
OUT: 5560

IN: What value of ETS1 binding intensity has been reported for the following sequence? CAGCAGAGGCGCGGATGTGGTTAAACGAGTGCCGTC
OUT: 6770

IN: Look at this sequence and give its reported ETS1 binding intensity. GTTGTGCTCTTTCCTGCTTCCCGCAGTTTTTTAGTT
OUT: 921

IN: Tell me the measured ETS1 binding intensity of CTTACCTACAGTTCCGCTTGCTGTGGTTTCAGTTAC , please.
OUT: 843

IN: Item GCGCGGGCAACTTCCGGTGTGGGTGACGAGTGGTGG has what recorded ETS1 binding intensity?
OUT: 12700

IN: I have this sequence here, CCTTTACTTCCTTTTACTTCTAACCACAGAATTAAA , and I need its recorded ETS1 binding intensity.
OUT: 1810

IN: # ETS1 binding intensity lookup, item CATGCGTCACCTTCCTGTGTGGTCAGCAGTGCTTGC
OUT: 468

IN: State the recorded ETS1 binding intensity for this entry: AGTTTCTCCAGGAAGCGCTGAGGTTTTCTCAGAAGT
OUT: 1160

IN: Can you share its ETS1 binding intensity? I mean this sequence: CTAGCTGTGGACAGGAAACGAGTGGTTTTTGTGATC
OUT: 8040

IN: Which ETS1 binding intensity value is on record for GCGCCGGTGACGGAAGTGCGGTGTTGAGCGCCGGCG ?
OUT: 3070

IN: ETS1 binding intensity lookup needed for TTACACCCAAGGGATGTTGTTTGTGGGGGGCGGGGT , thanks.
OUT: 490

IN: Any idea what ETS1 binding intensity was measured for CTCACAGCAGCCCCAGGAAACCACCTCTTCCTTCAG ?
OUT: 876

IN: Which ETS1 binding intensity is listed for TCTCGTCCGGTCCTTGCTCCCCCTCCCCGCAGCGCT ?
OUT: 790

IN: For AAAATTAAAGCAGGAAGTAATCAACCACATCAAATG , what is its reported ETS1 binding intensity?
OUT: 9610

IN: // ETS1 binding intensity lookup, key: CTACCCTCCCTCTTCCTGTGGTTTCTCAAACATGTC
OUT: 937

IN: # get_value(readout='ETS1 binding intensity', item= GGGCTCCCAGAAGGATGTGGTTTCTGAGTACGTTGG )
OUT: 3520

IN: Give the measured ETS1 binding intensity of AACAACTGACCGGACAGAACACAGCCACAAAACACG .
OUT: 544

IN: Data request, read-out ETS1 binding intensity, for GAATGACAGAAGCGGAAACCACATGAAAAAGGTGTT
OUT: 4230

IN: Need ETS1 binding intensity, item AATCCAACACTTCCTCCTCCACCGCAGAAAGGCAAC
OUT: 966
